System: PfIESI-1 RRM domain (Plasmodium falciparum ortholog aa 875-1232, GST fusion)
Experiment: RBNS R-value (6-mer enrichment in protein-bound RNA vs input library) (ratio); higher = stronger binding preference; the methods of the paper give 50 / 100 / 500 nM protein instead
Details: protein concentration: 1000 nM
Over roughly 4,100 sequences, “RBNS R-value (6-mer enrichment in protein-bound RNA vs input library)” has its median near 0.99; the highest 2% begin near 1.4. The list comes from a sample in which the highest values are over-represented; it also holds close analogues and randomly drawn sequences.
Please enter t where RBNS R-value is greater than or equal to 1, and f where it is lower.

1) UGAGAG :: t
2) GGCUAG :: t
3) ACCGAA :: t
4) AAUGAA :: t
5) GUGAUC :: t
6) UUCUCC :: f
7) GAUGGU :: t
8) UUUUUG :: t
9) GAUGAG :: t
10) UUGAUU :: t
11) AGAUGA :: t
12) UUAUUA :: f
13) UUGAGA :: t
14) AGAGAG :: t
15) CAUCAC :: f
16) CCGAUU :: t
17) UUGAUG :: t
18) UACCGA :: f
19) AGUGAA :: t
20) AGAGAA :: t
21) ACGAUG :: t
22) GUGAUG :: t
23) UGUAAU :: f
24) UUUUGU :: f
25) AUUCCG :: t
26) CCCGGU :: t
27) CUUUAU :: f
28) CUUUGG :: f
29) AGUGAU :: t
30) AUACUA :: f
31) CACCUC :: t
32) AUGAUU :: t
33) UGAUGG :: t
34) AGAGAC :: t
35) CGAUCG :: f
36) GGUGAU :: t
37) CCACGA :: t
38) AGUGAC :: t
39) CGUGAU :: t
40) AUAUGA :: t
41) GAUGCU :: t
42) GGUGAA :: t
43) CGUUCA :: f
44) CGGGUC :: t
45) GAGUGC :: t
46) UGAGAC :: t
47) UGUGAU :: t
48) AUUUGU :: f
49) GUGAGA :: t
50) GAGAGA :: t
51) AGAUGC :: t
52) CCCGAG :: t
53) GUGUCA :: f
54) ACGAUC :: f
55) AUUUGA :: t
56) UAGAUG :: t
57) GCACGG :: t
58) AAAGGG :: t
59) GAUAGC :: t
60) GAUGAA :: t
61) GAUCGU :: f
62) AUUUGG :: t
63) UUGAUC :: t
64) GAUUGA :: t
65) UCCGAA :: t
66) GCGAUG :: t
67) CCGGGU :: t
68) AGGACA :: t
69) GGUCUU :: f
70) CACCUG :: t
71) CGAGAA :: t
72) CUACAU :: f
73) AUUAGU :: f
74) AUGAAU :: t
75) UCCUGU :: f
76) UUUUGA :: t
77) CUCCUU :: f
78) GAUUGC :: t
79) ACAUGA :: t
80) UGAGAA :: t
81) CUGAUA :: t
82) UGUCAC :: f
83) UUGAUA :: t
84) CUGAUU :: t
85) CCCGAA :: t
86) GAUGAU :: t
87) AGAUGG :: t
88) UUCGUU :: f
